test system: P. falciparum strain Dd2; test: Inhibitor susceptibility dose-response assay (SYBR-Green I), P. falciparum Dd2; type: cell-based, Plasmodium falciparum; conditions: Plasmodium falciparum, DD2, 72 h, read-out: IC50 (S.D.), P. falciparum-Dd2
Note to self: use 1 only for IC50 readings below 4 µM; a reading exactly at 4 µM still gets -1.

[
  {
    "compound": "CCn1c2ccccc2c2cc(-n3nncc3-c3ccccc3)ccc21",
    "category-label": -1
  },
  {
    "compound": "Clc1cccc(Cl)c1CSc1nnc(-c2cnccn2)s1",
    "category-label": -1
  },
  {
    "compound": "Clc1ccc(C(c2ccc(Cl)cc2)n2cc[n+](CC(OCc3ccc(Cl)cc3Cl)c3ccc(Cl)cc3Cl)c2)cc1 (stereo not drawn)",
    "category-label": 1
  },
  {
    "compound": "COC[C@H]1Cn2cc(-c3nc(Nc4ccnn4C)ncc3C)nc2C(=O)N1Cc1ccc(F)c(F)c1",
    "category-label": -1
  },
  {
    "compound": "CN(C)CCOc1ccc(-c2nc(-c3ccncc3)c(-c3ccc4c(c3)CC/C4=N\\O)[nH]2)cc1",
    "category-label": 1
  },
  {
    "compound": "Oc1ccc2ccccc2c1SSc1c(O)ccc2ccccc12",
    "category-label": -1
  },
  {
    "compound": "CC(C)CC(O)(CC(C)C)c1cnn(C(=O)N2CCCC2)n1",
    "category-label": 1
  }
]

Read the next record carefully.
Take the compound O=C(O)/C=C/c1cc(Br)c(Br)c(Br)c1Br and say whether its IC50 is less than 4 µM.
-1

The values you see were collected from paper PMC10988762.
